- ASSAY_NAME: Toxicity liver stage against HepG2, at 10uM
- Assay type: cell-based
- Design: test concentration 10 uM, cell line HepG2-A16-CD81EGFP
- CONDITION_NOTES: human, HepG2-A16-CD81EGFP cells; read-out: INHIBITION
QUANTITY_MEASURED: cytotoxicity at 10 µM (%)

INSERT INTO assay_data (molecule, readout_value) VALUES
  ('O=C(Cn1cc(-c2ccccc2)ncc1=O)Nc1ncc[nH]1', 5.89),
  ('O=C(NCCN1CCOCC1)NCc1cccnc1-n1cccn1', -2.22),
  ('Fc1ccc(N2CCCN(Cc3ccc(-c4cc[nH]n4)o3)CC2)cc1', 0.898),
  ('Cc1ccccc1S(=O)(=O)N1CCCCC1c1ccn[nH]1 (stereo unspecified)', 12.1),
  ('NCCSc1nccc(-c2cnc(C3CC3)nc2-c2ccco2)n1', -7.19),
  ('CC(=O)Nc1ccc(-n2cncn2)c(F)c1', -11.3),
  ('Cc1ccccc1OCCCC(=O)N(C)CCC#N', 2.33),
  ('CN(Cc1ccc([S+](C)[O-])cc1)c1ccc(C(F)(F)F)cn1 (stereo unspecified)', -1.32),
  ('Cc1ccc([C@@H]2CN(C(=O)c3ccoc3C)C[C@H]2NC(=O)C2CC2)cc1', 4.22),
  ('Cc1nc([C@H]2C[C@H]3CN(C(=O)c4ccoc4C)CC[C@@H]3O2)no1', 0.369),
  ('COc1ccccc1OC(C)CNC(=O)c1cnc[nH]1 (stereo unspecified)', 1.57),
  ('NC(=O)CN(Cc1ccc(Br)cc1)C(=O)c1ccccn1', 6.85),
  ('CO[C@@H](C(=O)NC1CCOCC1)c1ccccc1', -2.43),
  ('CCc1nsc(N2CCC3(CC2)OCCO3)n1', 2.24),
  ('CCOCC1CN(Cc2ccoc2)Cc2cn(CC3CC3)nc21 (stereo unspecified)', 12.1),
  ('Cc1cc(N2CCN(c3nc4ccccc4cc3CO)CC2)nc(C)n1', 7.86),
  ('COCC1c2c(cnn2C)CCN1C(=O)c1cccn1C (stereo unspecified)', -94.1),
  ('CCCc1nc(C)c(C(=O)NCCN2CCN(CC)CC2)s1', -10.6),
  ('CCc1noc(C2CCCCN2C(=O)c2nnc3ccccc3n2)n1 (stereo unspecified)', 0.795),
  ('O=C(Cc1ccccc1)N1Cc2nccn2CC(CN2CCCC2)C1 (stereo unspecified)', -101),
  ('CNc1ccc(Cl)cc1C(=O)N1CCC(Cn2cc(CN)nn2)CC1', -2.37),
  ('CCc1nc(CN(C)CC(=O)N(C)C2CC2)cs1', -3.54),
  ('Cc1cc(N2CCc3cnc(C)nc3C2)n2nc(C(F)(F)F)nc2n1', 0.769),
  ('O=c1cc(Cn2cncn2)nc2n1CCCN(Cc1ccsc1)C2', -0.123),
  ('Cn1cc(CN2CCCC(CCc3ccc(F)cc3F)C2)cn1 (stereo unspecified)', -10.4),
  ('CN(Cc1nc(C2CC2)no1)C(=O)c1cccc(CC2CCNCC2)c1', 2.74),
  ('O=C(CO)N1CCC(c2cncc(-c3cccc(Cl)c3)n2)CC1', -0.105),
  ('Cc1cc(N(C)C)nc(N2CCn3c(nnc3C(C)C)C2)n1', 19),
  ('CN(C)C(=O)N1CCN(C(=O)c2ccn3ccnc3c2)CC1', -5.02),
  ('COc1ccc(C)cc1C(=O)NC1(C#N)CCOCC1', 1.98),
  ('CCN(CC)C(=O)c1ccc(-n2ncc(C#N)c2N)cc1', 0.796),
  ('O=C(O)[C@]12CCCN(Cc3ccccn3)[C@@H]1CCN(c1cnccn1)C2', 2.12),
  ('CN1CCCN(C(=O)c2cccn2-c2ccc3c(c2)OCCO3)CC1', 1.03),
  ('CC(NCc1ccc(OCc2nccn2C)cc1)c1cccnc1 (stereo unspecified)', -4.47),
  ('Cc1cncc(C2CCCN(Cc3cccn3C)C2)n1 (stereo unspecified)', 8.25),
  ('Cc1cc(-c2nn(C)c(Cl)c2CN2CCOC(C(=O)O)C2)no1 (stereo unspecified)', 4.04);
